The origin of these recorded values is patent US8586611B2.

system: Phytophthora infestans; test: whole plant or invertebrate; type: in vivo; settings: tomato late blight; spray 17 h after inoculation; compounds without asterisk (not 40 or 10 ppm)
Assign labels as follows, please: TRUE for Test D disease rating (100 = 100% disease control, 0 = no disease control) below 90%; FALSE for Test D disease rating (100 = 100% disease control, 0 = no disease control) equal to or exceeding 90%.

- MOLECULE: "Cc1ccc(C)c(CC(=O)N2CCC(c3nc(C(=O)N(C)C4CCOc5ccccc54)cs3)CC2)c1 (centres unmarked)"
  LABEL CLASS: "FALSE"
- MOLECULE: "Cc1ccc(C)c(CC(=O)N2CCC(c3nc(C(=O)N(C)C(C)c4cc(C)sc4C)cs3)CC2)c1 (centres unmarked)"
  LABEL CLASS: "FALSE"
- MOLECULE: "Cc1cc(C(F)(F)F)nn1CC(=O)N1CCC(c2cc(C(=O)N(C)[C@@H]3CCCc4ccccc43)on2)CC1"
  LABEL CLASS: "FALSE"
- MOLECULE: "Cc1ccc([C@@H](C)N(C)C(=O)c2csc(C3CCN(C(=O)Cc4cc(C)ccc4C)CC3)n2)cc1"
  LABEL CLASS: "TRUE"
- MOLECULE: "Cc1cc(C(F)(F)F)nn1CC(=O)N1CCC(c2nc(C(=O)N(C)C3c4ccccc4CC3O)cs2)CC1 (centres unmarked)"
  LABEL CLASS: "FALSE"
- MOLECULE: "Cc1ccc(C)c(CC(=O)N2CCC(c3nc(C(=O)N(C)[C@H](C)c4ccc(F)cc4)cs3)CC2)c1"
  LABEL CLASS: "FALSE"
- MOLECULE: "Cc1cc(C(F)(F)F)nn1CC(=O)N1CCC(c2nc(C(=O)N(C)[C@H](C)c3ncc(Cl)cc3Cl)cs2)CC1"
  LABEL CLASS: "FALSE"
- MOLECULE: "Cc1cc(C(F)(F)F)nn1CC(=O)N1CCC(c2nc(C(=O)N(C)[C@@H]3CCCc4ccccc43)no2)CC1"
  LABEL CLASS: "FALSE"

**Query** Input Cc1ccc(C)c(CC(=O)N2CCC(c3nc(C(=O)N(C)C(C)c4cc(C)oc4C)cs3)CC2)c1 (centres unmarked) ; condition: Test D disease rating (100 = 100% disease control, 0 = no disease control) strictly below 90%. Does it hold?
**Result** TRUE

**Query** Item: CN(Cc1cccnc1)C(=O)c1csc(C2CCN(C(=O)Cc3cccc(C(F)(F)F)c3)CC2)n1
**Result** TRUE

**Query** Item: Cc1cc(C)n(CC(=O)N2CCC(c3nc(C(=O)N(C)[C@H](C)c4ccccc4)cs3)CC2)c1
**Result** TRUE

**Query** Item: C[C@H](c1ccccc1)N(C)C(=O)c1coc(N2CCN(C(=O)Cc3cccc(Br)c3)CC2)n1
**Result** TRUE

**Query** Item: Cc1ccc(C)c(CC(=O)N2CCC(c3nc(C(=O)N(C)[C@H]4CCc5ccccc54)cs3)CC2)c1
**Result** TRUE

**Query** Item: C[C@H](c1ccccc1)N(C)C(=O)c1csc(C2CCN(C(=S)Nc3cccc(C(F)(F)F)c3)CC2)n1
**Result** TRUE

**Query** Item: Cc1cc(C(F)(F)F)nn1CC(=O)N1CCCN(c2nc(C(=O)N(C)[C@@H]3CCCc4ccccc43)cs2)CC1
**Result** TRUE

**Query** Item: Cc1ccc(C)c(CC(=O)N2CCC(c3nc(C(=O)N(C)[C@H](C)c4cccc(C(F)(F)F)c4)cs3)CC2)c1 [compound 67]
**Result** TRUE

**Query** Item: COc1ccc(C)cc1CC(=O)N1CCC(c2nc(C(=O)N(C)[C@H](C)c3ccccc3)cs2)CC1
**Result** FALSE

**Query** Item: Cc1ccc(C)c(CC(=O)N2CCC(c3nc(C(=O)N(C)C(C)c4ccccn4)cs3)CC2)c1 (centres unmarked)
**Result** FALSE

**Query** Item: Cc1ccc(C)c(CC(=O)N2CCC(c3nc(C(=O)N(C)C4CCc5ccccc5C4)cs3)CC2)c1 (centres unmarked)
**Result** TRUE
